tested on: HBV; assay: HBV inhibitory activity: HBV DNA in the culture medium of HepG2.2.15 cells by q-PCR; assay type: cell-based; conditions: HepG2.2.15 cells, 6 days of compound treatment, HBV DNA in culture medium by q-PCR, highest concentration 10 μM; read-out: EC50

- Molecule: "CCOC(=O)C1=C(C2CCN(S(=O)(=O)C3CC(C)(C(=O)O)C3)CC2)NC(c2nccs2)=NC1c1ccc(F)cc1Cl (centres unmarked) [Compound 272A]"
  EC50 [nM]: 17
- Molecule: "CCOC(=O)C1=C([C@@H]2CCC[C@H](C(=O)O)CC2)NC(c2nccs2)=NC1c1ccc(F)c(F)c1Cl (relative stereo) [Compound 302E]"
  EC50 [nM]: 25
- Molecule: "COC(=O)C1=C(C2CCCN(S(C)(=O)=O)C2)NC(c2nccs2)=NC1c1ccc(F)cc1Cl (single isomer, unassigned) [Compound 33A]"
  EC50 [nM]: 190
- Molecule: "COC(=O)C1=C(C2CCCOC2)NC(c2nccs2)=NC1c1ccc(F)cc1Cl (single isomer, unassigned) [Compound 48A]"
  EC50 [nM]: 565
- Molecule: "CCOC(=O)C1=C(C2CCN(S(=O)(=O)C3CC(C)(C(=O)O)C3)CC2)NC(c2nccs2)=NC1c1ccc(F)cc1Br (single isomer, unassigned) [Compound 282C]"
  EC50 [nM]: 15
- Molecule: "COC(=O)C1=C(C2CCN(S(=O)(=O)CC3(C)CCC(C(=O)O)CC3)CC2)NC(c2nccs2)=NC1c1ccc(F)c(F)c1Cl (single isomer, unassigned) [Compound 452A]"
  EC50 [nM]: 6
- Molecule: "COC(=O)C1=C(C2CCN(S(=O)(=O)C3CCC(C)(C(=O)O)CC3)CC2)NC(c2nccs2)=NC1c1ccc(F)c(F)c1Cl (single isomer, unassigned) [Compound 210B]"
  EC50 [nM]: 44
- Molecule: "CCOC(=O)C1=C(C2CCN(S(=O)(=O)[C@H]3C[C@H](C(=O)O)C3)CC2)NC(c2nccs2)=NC1c1ccc(F)c(F)c1C (single isomer, unassigned) [Compound 343C]"
  EC50 [nM]: 14
- Molecule: "COC(=O)C1=C(C2CCN(S(C)(=N)=O)CC2)NC(c2nccs2)=NC1c1ccc(F)c(F)c1Cl (centres unmarked) [Compound 205A]"
  EC50 [nM]: 7
- Molecule: "COC(=O)C1=C([C@H]2CC[C@H](NS(C)(=N)=O)CC2)NC(c2nccs2)=NC1c1ccc(F)cc1Cl (single isomer, unassigned) [Compound 287D]"
  EC50 [nM]: 67
- Molecule: "COC(=O)C1=C(C2CCN(S(C)(=O)=O)CC2)NC(c2nccs2)=NC1c1ccc(F)cc1Br (single isomer, unassigned) [Compound 120B]"
  EC50 [nM]: 154

----------
tested on: HBV; experiment: HBV inhibitory activity: HBV DNA in the culture medium of HepG2.2.15 cells by q-PCR; assay type: cell-based; conditions: HepG2.2.15 cells, 6 days of compound treatment, HBV DNA in culture medium by q-PCR, highest concentration 10 μM; read-out: EC50
pEC50: −log10 of the molar value.
Each item that follows carries a reported pEC50.

- Compound: "CCOC(=O)C1=C([C@@H]2C[C@H]2CC(=O)O)NC(c2nccs2)=NC1c1ccc(F)cc1Cl (single isomer, unassigned)"
  pEC50: 6.29
- Compound: "COC(=O)C1=C(C2CCC(=O)N2)NC(c2nccs2)=NC1c1cccc(F)c1Cl (single isomer, unassigned) [Compound 75A]"
  pEC50: 6.67
- Compound: "COC(=O)C1=C([C@H]2CCC[C@@H](CO)C2)NC(c2nccs2)=NC1c1ccc(F)cc1Cl (single isomer, unassigned) [Compound 173C]"
  pEC50: 6.97
- Compound: "CCOC(=O)C1=C(C2CCN(S(=O)(=O)[C@H]3C[C@@](C)(C(=O)O)C3)CC2)NC(c2nccs2)=NC1c1ccc(F)cc1Cl (stereo partly shown) [Compound 272B]"
  pEC50: 7.33
- Compound: "CCOC(=O)C1=C(C2CCN(S(=O)(=O)C3CC(C)(C(=O)O)C3)CC2)NC(c2nccs2)=NC1c1cccc(F)c1Br (single isomer, unassigned) [Compound 414C]"
  pEC50: 7.72
- Compound: "COC(=O)C1=C(C2CCCN(S(C)(=O)=O)CC2)NC(c2nccs2)=NC1c1ccc(F)cc1Cl (single isomer, unassigned) [Compound 383D]"
  pEC50: 6.83
- Compound: "COC(=O)C1=C(C2CCN(S(=O)(=O)C3CC(C)(C(=O)O)C3)CC2)NC(c2nccs2)=NC1c1ccc(F)cc1Cl (stereo not shown)"
  pEC50: 7.05

----------
Each item that follows carries a reported CC50 at 6 days.
assay: Cytotoxicity determination in HepG2.2.15 cells (CCK-8); type: cell-based; details: human, 6 days of compound treatment, CCK-8, highest concentration 100 μM

- Molecule: "CCOC(=O)C1=C([C@@H]2C[C@H](NS(C)(=O)=O)CO2)NC(c2nccs2)=NC1c1cccc(F)c1Cl (relative stereo)"
  CC50 at 6 days / µM: 37.5
- Molecule: "COC(=O)C1=C(C2CCN(C(=O)CNC(=O)OC(C)(C)C)CC2)NC(c2nccs2)=NC1c1ccc(F)cc1Cl (stereo not drawn)"
  CC50 at 6 days / µM: 28.2
- Molecule: "COC(=O)C1=C(C2CCN(C(=O)C(C)(C)C)C2)NC(c2nccs2)=NC1c1ccc(F)cc1Cl (stereo not drawn)"
  CC50 at 6 days / µM: 72.9

----------
system: HBV; test: HBV inhibitory activity: HBV DNA in the culture medium of HepG2.2.15 cells by q-PCR; assay type: cell-based; details: HepG2.2.15 cells, 6 days of compound treatment, HBV DNA in culture medium by q-PCR, highest concentration 10 μM; read-out: EC50
Each item that follows carries a reported log10(EC50).
Outcome Measure: log10(EC50) (log10 of the value in nM)

- Compound: "COC(=O)C1=C(C2CCC(NS(C)(=O)=O)C2)NC(c2nccs2)=NC1c1cccc(F)c1Cl (single isomer, unassigned) [Compound 61G]"
  log10(EC50): 2.63
- Compound: "COC(=O)C1=C(C2CCN(S(=O)(=O)C3CCC(C)(C(=O)O)CC3)CC2)NC(c2nccs2)=NC1c1ccc(F)c(F)c1Cl (single isomer, unassigned) [Compound 210A]"
  log10(EC50): 1.38
- Compound: "COC(=O)C1=C(C2CCN(C)C(=O)C2)NC(c2nccs2)=NC1c1ccc(F)cc1Cl (single isomer, unassigned) [Compound 1A]"
  log10(EC50): 2.59
- Compound: "CCOC(=O)C1=C(C2CCN(S(=O)(=O)C3CC(C)(C(=O)O)C3)CC2)NC(c2nccs2)=NC1c1ccc(F)c(F)c1Cl (stereo not shown) [Compound 270B]"
  log10(EC50): 1.23
- Compound: "CCOC(=O)C1=C(C2CCN(S(=O)(=O)C3CC(C)(C(=O)O)C3)CC2)NC(c2nccs2)=NC1c1cccc(F)c1C (single isomer, unassigned) [Compound 429C]"
  log10(EC50): 1.82
- Compound: "COC(=O)C1=C(C2COC(CO)C2)NC(c2nccs2)=NC1c1cccc(F)c1Cl (single isomer, unassigned) [Compound 219E]"
  log10(EC50): 2.13
- Compound: "CCOC(=O)C1=C([C@@H]2CC[C@H](C(=O)O)OC2)NC(c2nccs2)=NC1c1ccc(F)cc1Cl (single isomer, unassigned) [Compound 265H]"
  log10(EC50): 2.33
- Compound: "COC(=O)C1=C(C23CC(N(C[C@@H](O)CO)S(C)(=O)=O)(C2)C3)NC(c2nccs2)=NC1c1ccc(F)cc1Cl (single isomer, unassigned) [Compound 376C]"
  log10(EC50): 1.88
- Compound: "COC(=O)C1=C(C2CCC(NC(C)=O)C2)NC(c2nccs2)=NC1c1ccc(F)c(F)c1Cl (single isomer, unassigned) [Compound 300G]"
  log10(EC50): 2.09
- Compound: "CCOC(=O)C1=C(C2CCN(S(=O)(=O)C3CC(C)(C(=O)O)C3)CC2)NC(c2nccs2)=NC1c1cccc(F)c1Cl (single isomer, unassigned) [Compound 321A]"
  log10(EC50): 1.08
- Compound: "COC(=O)C1=C(C2CCN(S(=O)(=O)C3CC(C)(C(=O)OC)C3)CC2)NC(c2nccs2)=NC1c1ccc(F)c(F)c1Cl (single isomer, unassigned) [Compound 323D]"
  log10(EC50): 1.48
- Compound: "COC(=O)C1=C(C2CCCOC2)NC(c2nccs2)=NC1c1ccc(F)cc1Cl (single isomer, unassigned) [Compound 48D]"
  log10(EC50): 2.32
- Compound: "CCOC(=O)C1=C(C2CCN(S(=O)(=O)C3CC(C)(C(=O)O)C3)CC2)NC(c2nccs2)=NC1c1cccc(F)c1Br (single isomer, unassigned) [Compound 414D]"
  log10(EC50): 1.59
- Compound: "COC(=O)C1=C(C2CCN(S(=O)(=O)CC(=O)O)C2)NC(c2nccs2)=NC1c1ccc(F)cc1Cl (single isomer, unassigned) [Compound 214C]"
  log10(EC50): 2.89
- Compound: "COC(=O)C1=C([C@H]2CC[C@H](NS(C)(=O)=O)CC2)NC(c2ncc(F)cc2F)=NC1c1ccc(F)c(F)c1Cl (stereo partly shown) [Compound 298B]"
  log10(EC50): 1.23
- Compound: "COC(=O)C1=C(C2CCCC(C(=O)O)CC2)NC(c2nccs2)=NC1c1ccc(F)cc1Cl (single isomer, unassigned) [Compound 95E]"
  log10(EC50): 2.15
- Compound: "COC(=O)C1=C(C2CCOC2)NC(c2nccs2)=NC1c1cccc(F)c1Cl (single isomer, unassigned) [Compound 74A]"
  log10(EC50): 1.94
- Compound: "CCCS(=O)(=O)N1CCC(C2=C(C(=O)OC)C(c3ccc(F)cc3Cl)N=C(c3nccs3)N2)C1 (single isomer, unassigned) [Compound 256A]"
  log10(EC50): 1.91
- Compound: "COC(=O)C1=C(C2CCNC(=O)C2)NC(c2nccs2)=NC1c1ccc(F)cc1Cl (single isomer, unassigned)"
  log10(EC50): 2.12
